- TARGET_OR_SYSTEM: prothrombin (Homo sapiens, UniProt P00734 44-622)
- EXPERIMENT_DESCRIPTION: filter binding
MEASUREMENT_LABEL: pKd
Answers are plain numbers, as −log10 of the molar value.

For reference, reported pKd for RNAR9D-14T (XNA, 2'-fluoro on all C and U; purines 2'-OH) RNA: GGCGGUCGAUCACACAGUUCAAACGUAAUAAGCCAAUGUACGAGGCAGACGACUCGCC stands at 8.00

// provenance: paper PMC3636572
